study.target: human mGluR7 (Homo sapiens (Human))
assay.remarks: Inositol monophosphate production assay (IP1 assay), inhibition of L-AP4 response
Assay type: cell-based
protocol.conditions: mean IC50 from at least two independent experiments; HEK293 cells transiently transfected with mGluR7, Gqtop and EAAC1; IP1 production vs EC80 L-AP4
endpoint: IC50

Reported IC50 for CN(C)c1cccc(C2CCc3c(cnn(-c4ccccn4)c3=O)C2)c1 (stereo not shown) : what is it?
< 500 nM

Reported IC50 for CC(=O)Nc1cnc(-n2ncc3c(c2=O)CCC(c2ccc(C)cc2C)C3)nc1 (single isomer, unassigned; (-)) [Example 136] : what is it?
1000 to 30000 nM

Reported IC50 for COCc1cccc(C2CCc3c(cnn(-c4ncccn4)c3=O)C2)c1 (stereo not shown) : what is it?
500 to 1000 nM

Reported IC50 for O=c1c2c(cnn1-c1ccccn1)CC(c1cccc(OC3CC3)c1)CC2 (stereo not shown) : what is it?
< 500 nM

====

study.target: human mGluR7 (Homo sapiens (Human))
assay.remarks: Inositol monophosphate production assay (IP1 assay), inhibition of L-AP4 response
Assay type: cell-based
protocol.conditions: mean IC50 from at least two independent experiments; HEK293 cells transiently transfected with mGluR7, Gqtop and EAAC1; IP1 production vs EC80 L-AP4
endpoint: IC50

Field: example entries. Status: answers known.
compound	result
O=c1c2c(cnn1-c1ncccn1)CC(c1cccc(OC3CCCC3)c1)CC2 (centres unmarked)	500 to 1000 nM
Cc1ccc(C2CCc3c(cnn(-c4cccc(C#N)n4)c3=O)C2)c(C)c1 (centres unmarked)	< 500 nM
Cc1ccc(C)c(C2CCc3c(cnn(-c4ncccn4)c3=O)C2)c1 (centres unmarked)	500 to 1000 nM
COc1cccc(C2CCc3c(cnn(-c4ncc(C)cn4)c3=O)C2)c1Cl (centres unmarked) [Example 94]	< 500 nM

Now look at this one.
Reported IC50 for CC(=O)c1cccc(C2CCc3c(cnn(-c4ncccn4)c3=O)C2)c1C (centres unmarked) : what is it?
1000 to 30000 nM

====

study.target: human mGluR7 (Homo sapiens (Human), UniProt Q14831)
Sequence (Q14831 35-915): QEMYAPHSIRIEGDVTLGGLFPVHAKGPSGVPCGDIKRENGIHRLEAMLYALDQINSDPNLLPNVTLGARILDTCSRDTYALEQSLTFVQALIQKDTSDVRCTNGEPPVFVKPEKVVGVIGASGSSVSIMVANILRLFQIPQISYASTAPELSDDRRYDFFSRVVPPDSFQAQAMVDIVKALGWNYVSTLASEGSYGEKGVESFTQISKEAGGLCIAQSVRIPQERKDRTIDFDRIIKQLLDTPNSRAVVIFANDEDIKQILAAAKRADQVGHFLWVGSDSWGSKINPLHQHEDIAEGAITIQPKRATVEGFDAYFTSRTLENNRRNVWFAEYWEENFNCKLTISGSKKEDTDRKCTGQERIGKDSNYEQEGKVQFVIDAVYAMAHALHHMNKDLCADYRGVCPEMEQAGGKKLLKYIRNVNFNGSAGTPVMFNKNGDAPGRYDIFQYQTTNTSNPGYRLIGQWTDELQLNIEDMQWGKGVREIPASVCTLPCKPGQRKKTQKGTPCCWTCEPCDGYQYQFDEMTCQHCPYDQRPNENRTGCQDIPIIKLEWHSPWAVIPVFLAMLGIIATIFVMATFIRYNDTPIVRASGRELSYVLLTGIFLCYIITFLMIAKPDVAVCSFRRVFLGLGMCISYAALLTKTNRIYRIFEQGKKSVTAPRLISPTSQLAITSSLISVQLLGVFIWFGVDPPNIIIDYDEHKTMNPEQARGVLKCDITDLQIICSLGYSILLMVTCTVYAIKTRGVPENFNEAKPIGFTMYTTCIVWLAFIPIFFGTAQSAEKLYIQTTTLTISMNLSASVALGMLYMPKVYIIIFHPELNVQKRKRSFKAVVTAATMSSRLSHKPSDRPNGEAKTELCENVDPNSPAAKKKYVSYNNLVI
assay.remarks: Inositol monophosphate production assay (IP1 assay), inhibition of L-AP4 response
Format: cell-based
protocol.conditions: mean IC50 from at least two independent experiments; HEK293 cells transiently transfected with mGluR7, Gqtop and EAAC1; IP1 production vs EC80 L-AP4
endpoint: IC50

Field: example entries. Status: answers known.
compound	IC50
COc1ccc(C)cc1C1CCc2c(cnn(-c3ncccn3)c2=O)C1 (centres unmarked) [Example 76]	< 500 nM
COc1cccc(C2CCc3c(cnn(-c4ncc(N5CCCC5)cn4)c3=O)C2)c1C (centres unmarked) [Example 111]	1000 to 30000 nM
COc1c(C)cccc1C1CCc2c(cnn(-c3ncccn3)c2=O)C1 (centres unmarked) [Example 71]	500 to 1000 nM
Cc1ccc(C2CCc3c(cnn(-c4ncccc4F)c3=O)C2)c(C)c1 (centres unmarked) [Example 12]	< 500 nM

Now look at this one.
Find IC50 (human mGluR7 (Homo sapiens (Human), UniProt Q14831)) for the entry COc1cccc(-n2ncc3c(c2=O)CCC(c2ccc(C)cc2C)C3)n1 (centres unmarked) [Example 13]
< 500 nM

====

IC50 reference
study.target: human mGluR7 (Homo sapiens (Human), UniProt Q14831)
assay.remarks: Inositol monophosphate production assay (IP1 assay), inhibition of L-AP4 response
Format: cell-based
protocol.conditions: mean IC50 from at least two independent experiments; HEK293 cells transiently transfected with mGluR7, Gqtop and EAAC1; IP1 production vs EC80 L-AP4

Field: example entries. Status: answers known.
compound	result
COc1cccc(C2CCc3c(cnn(-c4ccc(N5CCOCC5)cn4)c3=O)C2)c1C (centres unmarked)	< 500 nM
COc1ccnc(-n2ncc3c(c2=O)CCC(c2ccc(C)cc2C)C3)n1 (centres unmarked)	< 500 nM
COc1cccc(C2CCc3c(cnn(-c4ncc(C)cn4)c3=O)C2)c1Cl (single isomer, unassigned; (+)) [Example 135]	500 to 1000 nM
COc1cccc(C2CCc3c(cnn(-c4ncc(C)cn4)c3=O)C2)c1C (centres unmarked)	< 500 nM
O=c1c2c(cnn1-c1ncccn1)CC(c1cccc(OC3CC3)c1Cl)CC2 (centres unmarked) [Example 91]	< 500 nM

Find IC50 (human mGluR7 (Homo sapiens (Human), UniProt Q14831)) for the entry Cc1ccc(C2CCc3c(cnn(-c4ccc(C5CC5)cn4)c3=O)C2)c(C)c1 (centres unmarked)
< 500 nM

Find IC50 (human mGluR7 (Homo sapiens (Human), UniProt Q14831)) for the entry COc1ccc(C2CCc3c(cnn(-c4ccccn4)c3=O)C2)cc1 (centres unmarked)
1000 to 30000 nM

Find IC50 (human mGluR7 (Homo sapiens (Human), UniProt Q14831)) for the entry Cc1ccc(C2CCc3c(cnn(-c4ncccn4)c3=O)C2)c(Cl)c1 (centres unmarked)
< 500 nM

====

IC50 reference
study.target: human mGluR7 (Homo sapiens (Human))
assay.remarks: Inositol monophosphate production assay (IP1 assay), inhibition of L-AP4 response
Type: cell-based
protocol.conditions: mean IC50 from at least two independent experiments; HEK293 cells transiently transfected with mGluR7, Gqtop and EAAC1; IP1 production vs EC80 L-AP4

Field: example entries. Status: answers known.
compound	result
COc1cnc(-n2ncc3c(c2=O)CCC(c2cc(OC)ccc2C)C3)nc1 (stereo not drawn)	500 to 1000 nM
Cc1c(OC2CC2)cccc1C1CCc2c(cnn(-c3ncc(Br)cn3)c2=O)C1 (stereo not drawn)	< 500 nM
COc1cc(C)ccc1C1CCc2c(cnn(-c3ccccn3)c2=O)C1 (stereo not drawn)	500 to 1000 nM

Reported IC50 for COc1cccc(C2CCc3c(cnn(-c4ccc(CO)cn4)c3=O)C2)c1C (stereo not drawn) : what is it?
< 500 nM

Reported IC50 for COc1ccnc(-n2ncc3c(c2=O)CCC(c2cccc(OC)c2C)C3)n1 (stereo not drawn) : what is it?
< 500 nM

Reported IC50 for COc1ccc(C)c(C2CCc3c(cnn(-c4ncc(C)cn4)c3=O)C2)c1 (stereo not drawn) : what is it?
< 500 nM

Reported IC50 for O=c1c2c(cnn1-c1ncccn1)CC(c1cccc3c1ccn3C1CC1)CC2 (single isomer, unassigned; (+)) [Example 138] : what is it?
500 to 1000 nM

Reported IC50 for Cc1ccc(-n2ncc3c(c2=O)CCC(c2ccc(C)cc2C)C3)nc1 (stereo not drawn) : what is it?
< 500 nM

Reported IC50 for COc1ccccc1C1CCc2c(cnn(-c3ccccn3)c2=O)C1 (stereo not drawn) : what is it?
< 500 nM

====

study.target: human mGluR7 (Homo sapiens (Human), UniProt Q14831)
assay.remarks: Inositol monophosphate production assay (IP1 assay), inhibition of L-AP4 response
Type: cell-based
protocol.conditions: mean IC50 from at least two independent experiments; HEK293 cells transiently transfected with mGluR7, Gqtop and EAAC1; IP1 production vs EC80 L-AP4
Procedure: Inositol Monophosphate Production Assay (IP1 Assay): HEK293 cells were transiently transfected with mGluR7 by electroporation and seeded in a poly-ornithine coated 96-well plate at the density of 150 000 cells/well. […] IP1 production was determined using the IP-One HTRF kit (CisBio Bioassays), a competitive immunoassay using cryptate-labeled anti-IP1 antibody and d2-labeled IP, according to the manufacturer's recommendations. […]
endpoint: IC50

compound	IC50
Cc1cnc(-n2ncc3c(c2=O)CCC(c2cccc(OC4CC4)c2C)C3)nc1 (single isomer, unassigned; (-)) [Example 132]	< 500 nM
COc1ccc(C)c(C2CCc3c(cnn(-c4ncccn4)c3=O)C2)c1 (centres unmarked) [Example 80]	< 500 nM
O=c1c2c(cnn1-c1ncccn1)CC(c1cccc(OC3CC3)c1Cl)CC2 (single isomer, unassigned; (+)) [Example 131]	< 500 nM
O=c1c2c(cnn1-c1ccccn1)CC(c1cccc(C3CC3)c1)CC2 (centres unmarked) [Example 63]	500 to 1000 nM
Cc1ccc(C2CCc3c(ncn(-c4ccccn4)c3=O)C2)c(C)c1 (centres unmarked) [Example 122]	< 500 nM

Reported IC50 for CC(=O)Nc1cnc(-n2ncc3c(c2=O)CCC(c2ccc(C)cc2C)C3)nc1 (centres unmarked) [Example 117] : what is it?
< 500 nM

Reported IC50 for Cc1cccc(C2CCc3c(cnn(-c4ncccn4)c3=O)C2)c1C (centres unmarked) [Example 82] : what is it?
500 to 1000 nM

Reported IC50 for O=c1c2c(cnn1-c1ncccn1)CC(c1cccc(OC3CC3)c1)CC2 (centres unmarked) [Example 85] : what is it?
< 500 nM

====

IC50 reference
study.target: human mGluR7 (Homo sapiens (Human), UniProt Q14831)
assay.remarks: Inositol monophosphate production assay (IP1 assay), inhibition of L-AP4 response
Format: cell-based
protocol.conditions: mean IC50 from at least two independent experiments; HEK293 cells transiently transfected with mGluR7, Gqtop and EAAC1; IP1 production vs EC80 L-AP4

compound	study.target	IC50
CN1CCc2c(C3CCc4c(cnn(-c5ccccn5)c4=O)C3)cccc21 (stereo not shown)	human mGluR7 (Homo sapiens (Human), UniProt Q14831)	< 500 nM
CC(=O)Nc1cnc(-n2ncc3c(c2=O)CCC(c2cccc(OC4CC4)c2C)C3)nc1 (stereo not shown)	human mGluR7 (Homo sapiens (Human), UniProt Q14831)	< 500 nM

Reported IC50 for Cc1ccc(C2CCc3c(cnn(-c4ncccc4C#N)c3=O)C2)c(C)c1 (stereo not shown) : what is it?
< 500 nM

Reported IC50 for CC(O)c1cccc(C2CCc3c(cnn(-c4ccccn4)c3=O)C2)c1 (stereo not shown) : what is it?
500 to 1000 nM

Reported IC50 for Cc1ccc(C2CCc3c(cnn(-c4ncc(Cl)cn4)c3=O)C2)c(C)c1 (stereo not shown) : what is it?
< 500 nM

Reported IC50 for Cc1ccc(C2CCc3c(cnn(-c4ccc(F)cn4)c3=O)C2)c(C)c1 (stereo not shown) : what is it?
< 500 nM

Reported IC50 for Cc1c(OC2CC2)cccc1C1CCc2c(cnn(-c3ncccn3)c2=O)C1 (stereo not shown) [Example 104] : what is it?
< 500 nM

Reported IC50 for Cc1ccc(C2CCc3c(cnn(-c4ccc(Cl)cn4)c3=O)C2)c(C)c1 (stereo not shown) : what is it?
< 500 nM

Reported IC50 for Cc1cnc(-n2ncc3c(c2=O)CCC(c2cccc(OC4CC4)c2C)C3)nc1 (single isomer, unassigned; (+)) [Example 133] : what is it?
1000 to 30000 nM

Reported IC50 for Cc1ccc(C2CCc3c(cnn(-c4ncc(C5CC5)cn4)c3=O)C2)c(C)c1 (stereo not shown) : what is it?
< 500 nM

Reported IC50 for Cc1ccc(C2CCc3c(cnn(-c4nc(C)cc(C)n4)c3=O)C2)c(C)c1 (stereo not shown) : what is it?
1000 to 30000 nM
